Data origin: ChEMBL document CHEMBL5108067

Assayed Target: Ubiquitin carboxyl-terminal hydrolase 8 (Homo sapiens) (UniProt P40818)
Sequence (whole entry): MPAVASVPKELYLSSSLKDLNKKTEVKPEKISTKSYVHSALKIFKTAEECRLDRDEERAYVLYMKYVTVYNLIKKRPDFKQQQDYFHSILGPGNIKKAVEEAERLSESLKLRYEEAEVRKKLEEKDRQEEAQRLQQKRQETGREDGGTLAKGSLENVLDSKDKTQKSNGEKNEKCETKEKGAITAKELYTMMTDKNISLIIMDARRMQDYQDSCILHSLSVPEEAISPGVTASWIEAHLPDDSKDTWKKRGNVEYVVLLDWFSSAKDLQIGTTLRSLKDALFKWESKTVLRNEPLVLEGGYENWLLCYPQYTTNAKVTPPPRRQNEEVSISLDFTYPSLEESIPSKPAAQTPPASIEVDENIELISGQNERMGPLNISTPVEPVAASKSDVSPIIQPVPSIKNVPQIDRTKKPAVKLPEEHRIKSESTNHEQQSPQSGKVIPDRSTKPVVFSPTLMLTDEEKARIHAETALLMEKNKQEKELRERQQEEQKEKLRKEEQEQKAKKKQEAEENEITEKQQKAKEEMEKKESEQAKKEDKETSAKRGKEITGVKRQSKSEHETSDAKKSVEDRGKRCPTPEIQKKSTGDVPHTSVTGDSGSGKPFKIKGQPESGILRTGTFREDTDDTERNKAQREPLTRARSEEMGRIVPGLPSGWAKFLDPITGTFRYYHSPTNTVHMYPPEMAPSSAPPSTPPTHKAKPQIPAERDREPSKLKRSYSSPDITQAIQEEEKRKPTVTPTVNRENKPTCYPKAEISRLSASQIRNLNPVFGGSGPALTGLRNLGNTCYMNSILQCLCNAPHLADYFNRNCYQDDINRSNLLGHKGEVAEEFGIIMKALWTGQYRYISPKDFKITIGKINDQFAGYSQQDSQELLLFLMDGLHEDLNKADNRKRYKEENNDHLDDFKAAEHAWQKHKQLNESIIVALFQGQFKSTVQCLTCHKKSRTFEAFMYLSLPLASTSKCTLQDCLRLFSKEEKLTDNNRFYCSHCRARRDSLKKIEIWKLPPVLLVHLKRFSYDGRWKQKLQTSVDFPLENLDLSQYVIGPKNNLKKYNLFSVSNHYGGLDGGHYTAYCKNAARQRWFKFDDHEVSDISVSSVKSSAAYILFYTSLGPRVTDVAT
Assay Remarks: Inhibition of N-terminal His-6 tagged USP8 (734 to 1110 residues) (unknown origin) expressed in Escherichia coli BL21 (DE3) cells at 100 nM measured after 3 hrs by fluorescence based Plate reader method relative to control
Run Conditions: values are per cent of control
Measured residual activity accompanies every entry in the list below.
Give the quantity in %, number only.

Consider the following illustrative entries.
>>> print(df.to_string())
                                  structure                            assayed_target      property_name   val
0  O=C1c2ccccc2C(=O)c2oc(-c3c(F)ccc(F)c3F)nc21  Ubiquitin carboxyl-terminal hydrolase 8 (Homo sapiens) (UniProt P40818)  residual activity  21.9
1  O=C1c2ccccc2C(=O)c2oc(-c3ccc(Cl)cc3Cl)nc21  Ubiquitin carboxyl-terminal hydrolase 8 (Homo sapiens) (UniProt P40818)  residual activity    16
2  O=C1c2ccccc2C(=O)c2oc(-c3ccc(F)cc3Cl)nc21  Ubiquitin carboxyl-terminal hydrolase 8 (Homo sapiens) (UniProt P40818)  residual activity  37.4
3  CN(C)CCOc1cccc(-c2nc3c([nH]2)C(=O)c2ccccc2C3=O)c1  Ubiquitin carboxyl-terminal hydrolase 8 (Homo sapiens) (UniProt P40818)  residual activity  86.4
4  O=C1c2ccccc2C(=O)c2oc(-c3cccc(F)c3F)nc21  Ubiquitin carboxyl-terminal hydrolase 8 (Homo sapiens) (UniProt P40818)  residual activity  22.7

Given the compound O=C1c2ccccc2C(=O)c2oc(-c3cccc(C(F)(F)F)c3)nc21 , what is its reported residual activity?
21.6

Given the compound COc1cc(O[C@@H]2CCN(C)C2)cc(-c2nc3c(o2)C(=O)c2ccccc2C3=O)c1 , what is its reported residual activity?
46.2

Given the compound COc1ccc(Cl)c(-c2nc3c(o2)C(=O)c2ccccc2C3=O)c1F , what is its reported residual activity?
20.4
